biological target: VHL-ElonginBC complex (Homo sapiens, UniProt P40337); construct: His-TEV (His-tag with TEV protease site) (cleaved yes); assay: Fluorescence-polarization (FP) competitive binding assay for VHL; conditions: VHL ligands; VHL-ElonginBC complex and fluorescent probe both 5 nM; read-out: FP Binding affinity IC50
attribute_measured: IC50 (µM)
Please state the figure in µM; there is no need to write the unit.

Completed entries (count: 5):
                                   molecule  assay_result
0  C#Cc1ccc([C@H](C)NC(=O)[C@@H]2C[C@@H](O)CN2C(=O)[C@@H](NC(C)=O)C(C)(C)C)cc1 [44a]         0.879
1  CC(=O)N[C@H](C(=O)N1C[C@H](O)C[C@H]1C(=O)N[C@@H](C)c1ccc(C2CC2)cc1)C(C)(C)C [46a]          6.11
2  CC(=O)N[C@H](C(=O)N1C[C@H](O)C[C@H]1C(=O)N[C@@H](C)c1ccc(Cl)cc1)C(C)(C)C [43a]          7.87
3  CC(=O)N[C@H](C(=O)N1C[C@H](O)C[C@H]1C(=O)N[C@@H](C)c1ccc(C#N)cc1)C(C)(C)C [45a]          4.83
4  CC(=O)N[C@H](C(=O)N1C[C@H](O)C[C@H]1C(=O)N[C@@H](C)c1ccc(C(C)C)cc1)C(C)(C)C [47a]            41

I'd like to know its IC50. The molecule in question is CC(=O)N[C@H](C(=O)N1C[C@H](O)C[C@H]1C(=O)N[C@@H](C)c1ccc(-c2scnc2C)cc1)C(C)(C)C [compound 11, reference compound]
0.196

Item under review: CC(=O)N[C@H](C(=O)N1C[C@H](O)C[C@H]1C(=O)N[C@@H](C)c1ccc(C(C)(C)C)cc1)C(C)(C)C [48a] . Reported IC50?
58.9

---

test system: MCF-7 cells; experiment: WST-8 cell proliferation assay in MCF-7 cells; assay type: cell-based, human; settings: MCF-7 cells, WST-8, 4 days
# key: entry, value: maximum inhibition (Imax)

Consider the worked cases shown below.
molecule	test_target	maximum inhibition (Imax)
C[C@]12CC[C@@H]3c4ccc(O)cc4C[C@@H](CCCCCCCCC[S+]([O-])CCCC(F)(F)C(F)(F)F)[C@H]3[C@@H]1CC[C@@H]2O (stereo partly shown)	MCF-7 cells	43.8%
CCN(CCCCCOCC(=O)N[C@H](C(=O)N1C[C@H](O)C[C@H]1C(=O)N[C@@H](C)c1ccc(-c2scnc2C)cc1)C(C)(C)C)CCOc1ccc(C(=O)c2c(-c3ccc(O)cc3)sc3cc(O)ccc23)cc1	MCF-7 cells	57.5%
CCNCCc1ccc(CN(CC)c2cc(OC)ccc2[C@@H]2CCc3cc(O)ccc3C2)cc1	MCF-7 cells	25.7%

So what's the measured maximum inhibition (Imax) for this one? `O=C(c1ccc(OCCN2CCCCC2)cc1)c1c(-c2ccc(O)cc2)sc2cc(O)ccc12`
34.0%
